- System: primary astrocytes
- RUN_DESCRIPTION: MTT mitochondrial activity assay in astrocytes
- Type: cell-based, mouse
- TEST_CONTEXT: 24 h, maximum concentration (200 μM)
ASSAY_METRIC: Remaining mitochondrial activity at maximum concentration compared to vehicle (%)

| COMPOUND | MEASURED_NUMBER |
| --- | --- |
| FC(F)(F)Oc1ccc(Nc2nccc3ccccc23)cc1 | 35.9 |
| COc1cc2ccnc(Cc3ccc(OC(F)(F)F)cc3)c2cc1OC | 77.3 |
| COc1cc2ccnc(Nc3ccc(C(F)(F)F)cc3)c2cc1OC | 7.86 |
| COc1cc2ccnc(Nc3ccc(OC(F)(F)F)cc3)c2cc1OC | 8.05 |
